// provenance: paper PMC8158513

Assay Remarks: Single-dose ocular bio-distribution and pharmacokinetics of topical γCD based eye drops (LC-MS/MS of ocular tissues)
Experimental Parameters: New Zealand White, rabbit, retinal/choroidal tissue, untreated control eye, topical or ocular, 35 µL, Cmax CE, retinal tissue (RT), single dose, mean ± SD
Observation Type: Cmax

Incoming: Can you look up the measured Cmax of CCOc1nc2cccc(C(=O)O)c2n1Cc1ccc(-c2ccccc2-c2nnn[nH]2)cc1 [candesartan] for me?
Outgoing: < 2 ng/g

====

Assay Remarks: in vivo
Experimental Parameters: New Zealand White, rabbit, in vivo, topical or ocular, Cmax SE, retinal(choroidal) tissue (RT)
Observation Type: Cmax (ng/g)
Reply with just the number (in ng/g).

Incoming: Please look up its Cmax: CCCCC1=NC2(CCCC2)C(=O)N1Cc1ccc(-c2ccccc2-c2nnn[nH]2)cc1 [irbesartan]
Outgoing: 251

====

Assay Remarks: Single-dose ocular bio-distribution and pharmacokinetics of topical γCD based eye drops (LC-MS/MS of ocular tissues)
Experimental Parameters: New Zealand White, rabbit, vitreous humor, untreated control eye, topical or ocular, 35 µL, Cmax CE, vitreous humor (VH), single dose, control eye
Observation Type: Cmax

Incoming: Consider the molecule CCOc1nc2cccc(C(=O)O)c2n1Cc1ccc(-c2ccccc2-c2nnn[nH]2)cc1 and give its measured Cmax.
Outgoing: < 2 ng/g

====

Assay Remarks: in vivo
Experimental Parameters: New Zealand White, rabbit, in vivo, topical or ocular
Observation Type: Tmax (min)
# number only, unit min dropped from output

Incoming: Fill in the blank: the reported Tmax of CCCCC1=NC2(CCCC2)C(=O)N1Cc1ccc(-c2ccccc2-c2nnn[nH]2)cc1 is ____.
Outgoing: 30

====

Assay Remarks: in vivo
Experimental Parameters: New Zealand White, rabbit, in vivo, topical or ocular, Tmax CE, retinal tissue (RT)
Observation Type: Tmax

Incoming: Name the reported Tmax value associated with the molecule CCCCC1=NC2(CCCC2)C(=O)N1Cc1ccc(-c2ccccc2-c2nnn[nH]2)cc1
Outgoing: 30 min

====

Assay Remarks: Single-dose ocular bio-distribution and pharmacokinetics of topical γCD based eye drops (LC-MS/MS of ocular tissues)
Experimental Parameters: New Zealand White, rabbit, corneal tissue, treated study eye, topical or ocular, 35 µL, Tmax SE, corneal tissue (CT), single dose, study eye; also published separately [20]
Observation Type: Tmax (h)
Write the answer as a number in h, unit excluded.

Incoming: Reported Tmax for CCOc1nc2cccc(C(=O)O)c2n1Cc1ccc(-c2ccccc2-c2nnn[nH]2)cc1 : what is it?
Outgoing: 1.5

====

Assay Remarks: Single-dose ocular bio-distribution and pharmacokinetics of topical γCD based eye drops (LC-MS/MS of ocular tissues)
Experimental Parameters: New Zealand White, rabbit, vitreous humor, treated study eye, topical or ocular, 35 µL, Tmax SE, vitreous humor (VH), single dose, study eye
Observation Type: Tmax
Please give the number followed by its unit.

Incoming: Give the measured Tmax of CCOc1nc2cccc(C(=O)O)c2n1Cc1ccc(-c2ccccc2-c2nnn[nH]2)cc1 .
Outgoing: 30 min

====

Assay Remarks: in vivo
Experimental Parameters: New Zealand White, rabbit, in vivo, topical or ocular, Tmax CE, vitreous humor (VH)
Observation Type: Tmax (min)
Please state the figure in min; there is no need to write the unit.

Incoming: Entry under review: CCCCC1=NC2(CCCC2)C(=O)N1Cc1ccc(-c2ccccc2-c2nnn[nH]2)cc1 . Reported Tmax?
Outgoing: 30

====

Assay Remarks: Blood-plasma PK after topical eye drop administration
Experimental Parameters: New Zealand White, rabbit, plasma, topical or ocular, 35 µL
Protocol: A total number of 59 rabbits were included in this part of the study. All rabbits were consecutively assigned to one of the two study groups. […] Group 2 animals were dosed with 0.15% candesartan eye drops, while 23 rabbits received a single dose and 5 rabbits received multiple doses of the eye drops. […] Both, the eye-tissue and plasma samples were shipped to Nucro-Technics (Nucro-Technics, 2000 Ellesmere Road, Unit #16, Scarborough, ON, Canada) for quantitative analysis. […]
Observation Type: half-life (h)
Output spec: scalar in h, unitless text.

Incoming: Could you share which half-life value was measured for CCOc1nc2cccc(C(=O)O)c2n1Cc1ccc(-c2ccccc2-c2nnn[nH]2)cc1 ?
Outgoing: 9.74
